Recorded max response by entry
# Test system: CRL-7250
# ASSAY_NAME: Cytotoxic Profiling of Annotated Libraries Using Quantitative High-Throughput Screening (AID 1296008); further: on the % scale 0 is the no-effect control and ±100 the full control effect; nearly all actives have a fitted effect of over 60% in size
# TEST_SETTINGS: Five cell lines viability, CellTiter-Glo ATP luminescence, 48-72 h; hits give low values
Inconclusive results are not listed.
Kindly provide the numeric value in % only, without the unit symbol.

Solved cases (6 shown):
Prompt line: Can you look up the measured max response of CC(C)c1cc(-c2ccc(F)c3ccccc23)nc(N)n1 for me?
Response line: 2.23

Prompt line: Can you look up the measured max response of Cc1csc(N(C(=O)CSc2ccc(-c3ccccc3)nn2)C2CC2)n1 for me?
Response line: -10.7

Prompt line: Can you look up the measured max response of COC(=O)c1ccnc(-c2cc(C(=O)Nc3ccc(C4(N)CC4)cc3)ccn2)c1 for me?
Response line: -5.77

Prompt line: Can you look up the measured max response of O=S(=O)(N[C@H]1CCCC[C@@H]1N1CCOCC1)c1ccc(Cl)cc1 for me?
Response line: -16

Prompt line: Can you look up the measured max response of CC1(C)C2CCC(CO[C@@H]3O[C@H](CO[C@@H]4OC[C@](O)(CO)[C@H]4O)[C@@H](O)[C@H](O)[C@H]3O)C1C2 (stereo partly drawn) for me?
Response line: 1.81

Prompt line: Can you look up the measured max response of CCCn1cc2c(nc(NC(=O)Nc3ccc(OC)cc3)n3nc(-c4ccco4)nc23)n1 for me?
Response line: 4.71

More entries:
Prompt line: Can you look up the measured max response of CCC(C)C(=O)O[C@H]1[C@H](O)[C@@]2(COC(C)=O)C(CC1(C)C)C1=CCC3[C@@]4(C)CC[C@H](O[C@@H]5O[C@H](C(=O)O)[C@@H](O)[C@H](O)[C@H]5O)[C@@](C)(CO)C4CC[C@@]3(C)[C@]1(C)C[C@@H]2O (stereo partly drawn) for me?
Response line: 4.21

Prompt line: Can you look up the measured max response of C=CCC1=C[C@]2(OC)[C@H](C)[C@@H](c3ccc4c(c3)OCO4)O[C@]2(OC)CC1=O for me?
Response line: -2.76
